- Study Target: Aryl hydrocarbon receptor (Homo sapiens)
- Method Description: AHR activators, confirmation, cell-based, luminescence, luciferase reporter, human (AID 2845);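 further: HepG2 hepatoma cells carrying a DRE-driven firefly luciferase reporter; 0% = vehicle wells and 100% = reference agonist wells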
- Condition: human cells, AHR-responsive luciferase reporter, at 9 µM, active compounds read high
The whole screen tested about 2,300 compounds, of which about 2,000 (87%) were called active. So high a share suggests a set chosen from earlier hits. Only a sample is shown.
Outcome Measure: activation (%)
Number only, in %; omit the unit.

Which measured activation belongs to CCOC(=O)c1ccc2[nH]c3c(c2c1)CCCC3NC=O (configuration not stated) , tested on Aryl hydrocarbon receptor (Homo sapiens)?
89.1

Would you mind doing COc1ccccc1Nc1ncnc2c1oc1ccccc12 as well?
132

Would you mind doing Cc1ccnc(-n2sc3ccccc3c2=O)n1 as well?
55.4

Would you mind doing Cc1ccc(-c2nc(C#N)c(NCCCn3ccnc3)o2)cc1 as well?
107

Would you mind doing CC(C)C(=O)Nc1c(C(=O)c2ccc(F)cc2)oc2ccccc12 as well?
84.4

* * *

- Study Target: Aryl hydrocarbon receptor (Homo sapiens) (UniProt P35869)
- Sequence (P35869 whole entry, looked up): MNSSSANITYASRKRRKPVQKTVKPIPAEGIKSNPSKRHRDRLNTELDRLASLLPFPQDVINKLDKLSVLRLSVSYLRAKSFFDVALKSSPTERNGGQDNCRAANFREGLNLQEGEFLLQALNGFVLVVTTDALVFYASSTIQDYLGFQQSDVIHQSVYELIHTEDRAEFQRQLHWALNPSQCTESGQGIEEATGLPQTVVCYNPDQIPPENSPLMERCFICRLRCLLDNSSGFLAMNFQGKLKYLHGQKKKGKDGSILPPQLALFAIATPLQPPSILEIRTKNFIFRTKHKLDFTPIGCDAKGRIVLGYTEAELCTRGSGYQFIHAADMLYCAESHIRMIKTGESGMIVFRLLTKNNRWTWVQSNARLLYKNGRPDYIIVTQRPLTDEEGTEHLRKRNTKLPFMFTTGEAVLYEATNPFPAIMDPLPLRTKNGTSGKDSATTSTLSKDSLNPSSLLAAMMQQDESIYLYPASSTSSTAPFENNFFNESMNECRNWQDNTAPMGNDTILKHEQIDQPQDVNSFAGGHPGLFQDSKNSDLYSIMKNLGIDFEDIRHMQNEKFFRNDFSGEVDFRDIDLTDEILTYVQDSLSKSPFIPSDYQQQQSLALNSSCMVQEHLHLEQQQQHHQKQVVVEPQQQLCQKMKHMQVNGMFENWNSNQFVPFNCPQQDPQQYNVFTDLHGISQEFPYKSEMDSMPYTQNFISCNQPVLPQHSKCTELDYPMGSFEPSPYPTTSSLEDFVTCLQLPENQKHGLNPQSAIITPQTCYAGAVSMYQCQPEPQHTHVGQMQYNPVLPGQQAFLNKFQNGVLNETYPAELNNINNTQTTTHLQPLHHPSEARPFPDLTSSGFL
- Method Description: AHR activators, confirmation, cell-based, luminescence, luciferase reporter, human (AID 2845)
- Condition: human cells, AHR-responsive luciferase reporter, at 9 µM
Screen size: about 2,300 compounds; about 2,000 (87%) were called active. Cut-off read from the data, not from the text of the source: active = activation above about 49%; inactive = the rest. The set was probably picked from earlier hits. The list is a sample of the results.
Can you answer with just one of these options? active, inactive

Worked examples follow.
Molecule: O=C(Nc1ccc(-c2csc(Nc3cccc(C(F)(F)F)c3)n2)cc1)c1cccc(C(F)(F)F)c1
Study Target: Aryl hydrocarbon receptor (Homo sapiens) (UniProt P35869)
Class Assignment: inactive

Molecule: Brc1ccc(-c2noc(-c3ccccc3)n2)o1
Study Target: Aryl hydrocarbon receptor (Homo sapiens) (UniProt P35869)
Class Assignment: active

# lookup: test call for O=C(CC1Nc2ccccc2NC1=O)Nc1ccccc1 (stereo not drawn)
active

Would you mind doing Cc1cc(N2CCOCC2)nc(-c2ccc(Br)cc2)n1 as well?
active

* * *

- Study Target: Aryl hydrocarbon receptor (Homo sapiens)
- Method Description: AHR activators, confirmation, cell-based, luminescence, luciferase reporter, human (AID 2845)
- Condition: human cells, AHR-responsive luciferase reporter, at 9 µM, active compounds read high
Out of some 2,300 compounds screened, about 2,000 (87%) were called active. So high a share suggests a set chosen from earlier hits. The list is a sample of the results.
The molecules listed here are annotated with their activation.
Number only, in %; omit the unit.

Study these solved cases before continuing.
Molecule: S=c1[nH]nc(-c2cc(-c3ccsc3)n[nH]2)n1-c1ccccc1
Outcome Measure: activation
U: %
Reported: 103

Molecule: COc1ccc(C(=O)Nc2ccccc2C(=O)N/N=C/c2ccccc2OC)cc1
Outcome Measure: activation
U: %
Reported: 66.5

Which measured activation belongs to CNC(=O)c1ccc2nc(NC(C)=O)sc2c1 , tested on Aryl hydrocarbon receptor (Homo sapiens)?
22.7

Would you mind doing CC(=O)Nc1ccc(-c2nc3ccccc3o2)cc1 as well?
-4.38

Would you mind doing CCSc1ccccc1C(=O)Nc1ccc2c(c1)OCO2 as well?
101

Would you mind doing Clc1ccc(Nc2nc(-c3cccs3)cs2)nc1 as well?
141

Would you mind doing O=C(CSc1ccccn1)Nc1nc2c(ccc3ccccc32)s1 as well?
130

Would you mind doing Brc1ccc(C2=CC(c3ccco3)n3ncnc3N2)cc1 (configuration not stated) as well?
90.4

Would you mind doing NC(=O)Nc1ccccc1C(=O)NCCc1ccccc1 as well?
106

Would you mind doing O=C(Nc1cccc(Br)c1)c1ccc2snnc2c1 as well?
74.4

Would you mind doing CCC(=O)NC(=S)Nc1ccc(NC(=O)c2ccco2)c(Cl)c1 as well?
82

Would you mind doing COc1cccc(-c2nc3cc(C)ccc3o2)c1 as well?
47

* * *

The molecules listed here are annotated with their activation.
- Study Target: Aryl hydrocarbon receptor (Homo sapiens) (UniProt P35869)
- Method Description: AHR activators, confirmation, cell-based, luminescence, luciferase reporter, human (AID 2845)
- Condition: human cells, AHR-responsive luciferase reporter, at 9 µM, active compounds read high
Screen size: about 2,300 compounds; about 2,000 (87%) were called active. The set was probably picked from earlier hits. A selection follows.

Study these solved cases before continuing.
Molecule: O=C(N/N=C/c1c[nH]c2ccccc12)c1cc2ccccc2o1
activation: 42.3% (inactive)
//
Molecule: CCNC(=S)N1CCC(c2nc3cc(C)c(C)cc3[nH]2)CC1
activation: 25.5% (inactive)
//
Molecule: Cc1ccc(Cl)cc1NC(=O)C1CCCN(c2cnccn2)C1 (stereo not drawn)
activation: 90.8% (active)
//
Molecule: c1cnc(N2CCN(c3ccc4ccccc4n3)CC2)nc1
activation: 96.5% (active)
//
Molecule: Nc1[nH][nH]c(=O)c1N=Nc1ccc2c(c1)OCO2
activation: 74.9% (active)

For the molecule CN(C)S(=O)(=O)Oc1ccccc1C(=O)Nc1ccccc1Cl , what activation is on record?
99.1% (active)

Would you mind doing CC(C)n1cnc2c(Nc3cccc(Cl)c3)nc(N(CCO)CCCO)nc21 as well?
11.4% (inactive)

Would you mind doing O=C(Cn1c(NCCO)nc2ccccc21)c1ccc(Cl)cc1Cl as well?
115% (active)

* * *

- Study Target: Aryl hydrocarbon receptor (Homo sapiens)
- Method Description: AHR activators, confirmation, cell-based, luminescence, luciferase reporter, human (AID 2845);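 further: HepG2 hepatoma cells carrying a DRE-driven firefly luciferase reporter; 0% = vehicle wells and 100% = reference agonist wells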
- Condition: human cells, AHR-responsive luciferase reporter, at 9 µM
Screen size: about 2,300 compounds; about 2,000 (87%) were called active. Cut-off read from the data, not from the text of the source: active = activation above about 49%; inactive = the rest. So high a share suggests a set chosen from earlier hits. These entries were drawn from the full list.
Can you answer with just one of these options? T (active), F (inactive)

Worked examples follow.
Given Smiles: Cn1c(SCC(=O)c2ccccc2)ncc(C(=O)Nc2ccc(F)cc2)c1=O
Class Assignment: T

Given Smiles: OCCNc1nc(Nc2ccc(Cl)c(Cl)c2)nc2ccccc12
Class Assignment: T

# lookup: test call for COc1cc(/C=N/N=C(\N)c2nonc2N)cc(OC)c1OC
T

Would you mind doing Cn1cc(Cl)c(C(=O)NNC(=S)Nc2cccc(Cl)c2)n1 as well?
T

* * *

- Study Target: Aryl hydrocarbon receptor (Homo sapiens) (UniProt P35869)
- Method Description: AHR activators, confirmation, cell-based, luminescence, luciferase reporter, human (AID 2845);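 further: HepG2 hepatoma cells carrying a DRE-driven firefly luciferase reporter; 0% = vehicle wells and 100% = reference agonist wells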
- Condition: human cells, AHR-responsive luciferase reporter, at 9 µM, active compounds read high
Hit rate of the full screen: of about 2,300 compounds, about 2,000 (87%) were called active. So high a share suggests a set chosen from earlier hits. Only a sample is shown.
Entry class follows activation: c1 = under 80%, c2 = from 80% up to 90%, c3 = 90% and over

Worked examples follow.
Given Smiles: COc1cc(CNCc2ccc3c(c2)OCO3)c([N+](=O)[O-])cc1OC
Study Target: Aryl hydrocarbon receptor (Homo sapiens) (UniProt P35869)
Class Assignment: c2
//
Given Smiles: COc1ccccc1N1CCN(C(=O)c2cc3c(-c4ccc(Cl)cc4)nn(C)c3s2)CC1
Study Target: Aryl hydrocarbon receptor (Homo sapiens) (UniProt P35869)
Class Assignment: c3
//
Given Smiles: COc1ccc2nc(Nc3nc(-c4ccncc4)cs3)sc2c1
Study Target: Aryl hydrocarbon receptor (Homo sapiens) (UniProt P35869)
Class Assignment: c3
//
Given Smiles: Cc1ccnc(NC(=O)c2ccc(Cl)c([N+](=O)[O-])c2)c1
Study Target: Aryl hydrocarbon receptor (Homo sapiens) (UniProt P35869)
Class Assignment: c1
//
Given Smiles: COc1ccc(NC(=O)c2ccco2)cc1NC(=O)c1ccc(C#N)cc1F
Study Target: Aryl hydrocarbon receptor (Homo sapiens) (UniProt P35869)
Class Assignment: c1

Input CCN(CC)C(=O)Oc1ccc(Br)cc1C(=O)Nc1ccc(F)c(Cl)c1 ; output its category
c3

Would you mind doing O=C(Nc1ccc(C(F)(F)F)cc1)c1cccc(-n2cnnn2)c1 as well?
c3

Would you mind doing O=C(CSc1cccc2cccnc12)N/N=C/c1cccnc1 as well?
c1

* * *

The molecules listed here are annotated with their activation.
- Study Target: Aryl hydrocarbon receptor (Homo sapiens)
- Method Description: AHR activators, confirmation, cell-based, luminescence, luciferase reporter, human (AID 2845);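 further: HepG2 hepatoma cells carrying a DRE-driven firefly luciferase reporter; 0% = vehicle wells and 100% = reference agonist wells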
- Condition: human cells, AHR-responsive luciferase reporter, at 9 µM, active compounds read high
About 2,000 (87%) of roughly 2,300 compounds were called active. The set was probably picked from earlier hits. The list is a sample of the results.
Number only, in %; omit the unit.

Study these solved cases before continuing.
Molecule: CCOC(=O)c1nc(-c2ccc3c(c2)OCO3)[nH]c1C
Study Target: Aryl hydrocarbon receptor (Homo sapiens)
U: %
activation: 68.3
//
Molecule: COc1ccccc1NC(=O)C1=C(C)NC2=C(C(=O)CCC2)C1c1ccc(C)o1 (stereo not given)
Study Target: Aryl hydrocarbon receptor (Homo sapiens)
U: %
activation: 110
//
Molecule: Cc1nn(-c2ccccc2)c2[nH]c(C(F)(F)F)cc(=O)c12
Study Target: Aryl hydrocarbon receptor (Homo sapiens)
U: %
activation: 52.9
//
Molecule: O=C(Nc1cc(S(=O)(=O)Nc2ccc(Cl)cc2)ccc1O)c1ccc(F)cc1F
Study Target: Aryl hydrocarbon receptor (Homo sapiens)
U: %
activation: 103

Now examine the next entry.
For the molecule Cc1cccc(N=Nc2c(O)[nH]c3ccc(F)cc23)c1 , what activation is on record?
147

Source: PubChem BioAssay AID2845
